# Test system: OVCAR-3 ovarian
# PROTOCOL: NCI tumour cell line growth inhibition, 48 h
# TGI per record follows

| COMPOUND | SYSTEM_TESTED | TGI |
| --- | --- | --- |
| O=C(CCCCCCCCC(=O)N/N=C\c1ccccc1O)N/N=C\c1ccccc1O | OVCAR-3 ovarian | > 51.2 µM |
| CC(C)C1CC[C@@H](C)C[C@@]1(O)CC(N)=O (stereo partly specified) | OVCAR-3 ovarian | > 100 µM |
| CC(=O)OCC1OC(n2cnc(C(N)=S)c2N)C(OC(C)=O)C1OC(C)=O (stereo unspecified) | OVCAR-3 ovarian | > 100 µM |
| C=CCN1C(=O)C=C(c2ccccc2)n2ncc3cccc1c32 | OVCAR-3 ovarian | > 100 µM |
| N#CC(NC12CC3CC(CC(C3)C1)C2)c1ccc2c(c1)OCO2 (stereo unspecified) | OVCAR-3 ovarian | > 100 µM |
| COc1ccc(Nc2nnc(-c3nsc4ccccc34)s2)cc1 | OVCAR-3 ovarian | > 100 µM |
